target_of_assay: mouse melanocortin-1 receptor (mouse, UniProt Q01727 1-315)
Sequence (Q01727 whole entry): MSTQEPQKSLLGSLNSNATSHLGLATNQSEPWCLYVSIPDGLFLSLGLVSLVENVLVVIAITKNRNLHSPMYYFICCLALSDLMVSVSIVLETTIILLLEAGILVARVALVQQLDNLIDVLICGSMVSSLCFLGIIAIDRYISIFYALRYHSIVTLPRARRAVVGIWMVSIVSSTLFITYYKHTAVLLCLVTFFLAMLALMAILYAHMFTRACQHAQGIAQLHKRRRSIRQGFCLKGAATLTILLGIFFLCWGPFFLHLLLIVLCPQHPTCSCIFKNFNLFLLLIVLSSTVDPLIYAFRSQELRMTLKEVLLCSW
protocol_description: cell-based or functional assay
Non-standard residues stand in square brackets, D forms with d. dPhe(4-I) = N[C@H](Cc1ccc(I)cc1)C(=O)O; d2Nal = N[C@H](Cc1ccc2ccccc2c1)C(=O)O; Bta = N[C@@H](Cc1csc2ccccc12)C(=O)O
observation_type: cAMP AlphaScreen, HEK293 cells stably expressing the receptor: agonist EC50 (µM)
API: value field is a number in µM; no unit string.

Please review the entries below; each comes with its answer.
Q: Entry Ac-HR[dPhe(4-I)][Bta]-NH2 [compound 11] : reported cAMP AlphaScreen, HEK293 cells stably expressing the receptor: agonist EC50 = ?
A: 0.07

Q: Entry RRFF (HELM PEPTIDE1{[ac].R.R.[O=C([C@@H](Cc1ccc(I)cc1)N[*:1])[*:2]].F.[am]}$$$$V2.0; SMILES CC(=O)N[C@@H](CCCNC(=N)N)C(=O)N[C@@H](CCCNC(=N)N)C(=O)N[C@H](Cc1ccc(I)cc1)C(=O)N[C@@H](Cc1ccccc1)C(N)=O) [compound 25] : reported cAMP AlphaScreen, HEK293 cells stably expressing the receptor: agonist EC50 = ?
A: 0.055

Q: Entry Ac-RR[dPhe(4-I)][d2Nal]-NH2 [Ac-Arg-Arg-(pI)DPhe-DNal(2′)-NH2] : reported cAMP AlphaScreen, HEK293 cells stably expressing the receptor: agonist EC50 = ?
A: 0.28

Q: Entry RRFX (HELM PEPTIDE1{[ac].R.R.[O=C([C@@H](Cc1ccc(I)cc1)N[*:1])[*:2]].[Tic].[am]}$$$$V2.0; SMILES CC(=O)N[C@@H](CCCNC(=N)N)C(=O)N[C@@H](CCCNC(=N)N)C(=O)N[C@H](Cc1ccc(I)cc1)C(=O)N1Cc2ccccc2C[C@H]1C(N)=O) [Ac-Arg-Arg-(pI)DPhe-Tic-NH2] : reported cAMP AlphaScreen, HEK293 cells stably expressing the receptor: agonist EC50 = ?
A: 0.00051

More entries:
Q: Entry Ac-RR[dPhe(4-I)][Bta]-NH2 [compound 10] : reported cAMP AlphaScreen, HEK293 cells stably expressing the receptor: agonist EC50 = ?
A: 0.056

FYI, the data here is from paper PMC5672800.
